test system: A549; assay: Cytotoxicity against human A549 cells assessed as inhibition of cell proliferation after 48 hrs by MTT assay; assay type: functional, cell-based; settings: A549, 48 h
So basically: is IC50 under 200 µg/mL? Then yes (1). Not under? Then no (0).

{"Compound": "COc1cc2c(cc1OC)C1N(CC2)C(C(=O)/C=C/c2cc(OC)c(OC)c(OC)c2)=NN1c1ccccc1 (configuration not stated)", "Label": "yes (1)"}
{"Compound": "COc1cc2c(cc1OC)C1N(CC2)C(C(=O)/C=C/c2ccccc2)=NN1c1ccccc1 (configuration not stated)", "Label": "yes (1)"}
{"Compound": "COc1ccc(/C=C/C(=O)C2=NN(c3ccccc3)C3c4cc(OC)c(OC)cc4CCN23)cc1 (configuration not stated)", "Label": "yes (1)"}
{"Compound": "COc1cc2c(cc1OC)C1N(CC2)C(C(=O)/C=C/c2ccc([N+](=O)[O-])cc2)=NN1c1ccccc1 (configuration not stated)", "Label": "no (0)"}
{"Compound": "COc1cc2c(cc1OC)C1N(CC2)C(C(=O)/C=C/c2ccc(Cl)cc2)=NN1c1ccccc1 (configuration not stated)", "Label": "yes (1)"}
{"Compound": "O=c1[nH]cc(F)c(=O)[nH]1", "Label": "yes (1)"}
